assay-overview: Organ distribution in normal ICR mice after iv injection of radiolabeled tracer
Type: in vivo
conditions-used: [125I]-labeled tracer, 2 min
Protocol: The mice (n=3 for each time point) were sacrificed by cervical dislocation at designated time-points post injection. The organs of interest were removed and weighed, and the radioactivity was counted with an automatic gamma counter. The percentage dose per organ was calculated by a comparison of the tissue counts to suitably diluted aliquots of the injected material. The total activity of the blood was calculated under the assumption that it is 7% of the total body weight. […]
endpoint: Biodistribution: Skin (% dose/g)
One number for each entry, in % dose/g.

A selection of reference data follows.
compound: CNc1ccc(/C=C/c2cnc(OCCOCCOCCF)c(I)c2)cc1 [[^125I]13b]
observed-measurement: 1.48
//
compound: CNc1ccc(/C=C/c2cnc(OCCO)c(I)c2)cc1 [[^125I]16b]
observed-measurement: 0.95

Hi there! I need Biodistribution: Skin for each item below, if you can.
1. CN(C)c1ccc(/C=C/c2cnc(OCCO)c(I)c2)cc1 [[^125I]16a]
2. CN(C)c1ccc(/C=C/c2cnc(OCCOCCOCCF)c(I)c2)cc1 [[^125I]13a]

1: 0.46; 2: 0.54

----------
Task for the reader: assign each of the following compounds its reported Biodistribution: Thyroid.
assay-overview: Organ distribution in normal ICR mice after iv injection of radiolabeled tracer
Type: in vivo
conditions-used: [125I]-labeled tracer, 2 hr
One number for each entry, in % dose/g.

Hi there! I need Biodistribution: Thyroid for each item below, if you can.
1. CNc1ccc(/C=C/c2cnc(OCCOCCOCCF)c(I)c2)cc1 [[^125I]13b]
2. CN(C)c1ccc(/C=C/c2cnc(OCCOCCOCCF)c(I)c2)cc1 [[^125I]13a]
3. CN(C)c1ccc(/C=C/c2cnc(OCCO)c(I)c2)cc1 [[^125I]16a]
4. CNc1ccc(/C=C/c2cnc(OCCO)c(I)c2)cc1 [[^125I]16b]

[215.05, 60.76, 24.81, 99.88]

----------
Task for the reader: assign each of the following compounds its reported Biodistribution: Lung.
assay-overview: Organ distribution in normal ICR mice after iv injection of radiolabeled tracer
Type: in vivo
conditions-used: [125I]-labeled tracer, 30 min
Give bare numbers, in % dose/g.

A selection of reference data follows.
compound: CN(C)c1ccc(/C=C/c2cnc(OCCO)c(I)c2)cc1 [[^125I]16a]
observed-measurement: 3.02

compound: CN(C)c1ccc(/C=C/c2cnc(OCCOCCOCCF)c(I)c2)cc1 [[^125I]13a]
observed-measurement: 2.50

compound: CNc1ccc(/C=C/c2cnc(OCCOCCOCCF)c(I)c2)cc1 [[^125I]13b]
observed-measurement: 3.01

Please find the next compound below.
Given CNc1ccc(/C=C/c2cnc(OCCO)c(I)c2)cc1 [[^125I]16b] , state its recorded Biodistribution: Lung.
2.67

----------
Task for the reader: assign each of the following compounds its reported Biodistribution: Heart.
assay-overview: Organ distribution in normal ICR mice after iv injection of radiolabeled tracer
Format: in vivo
conditions-used: [125I]-labeled tracer, 2 min
One number for each entry, in % dose/g.

Hi there! I need Biodistribution: Heart for each item below, if you can.
1. CNc1ccc(/C=C/c2cnc(OCCO)c(I)c2)cc1 [[^125I]16b]
2. CN(C)c1ccc(/C=C/c2cnc(OCCO)c(I)c2)cc1 [[^125I]16a]
3. CN(C)c1ccc(/C=C/c2cnc(OCCOCCOCCF)c(I)c2)cc1 [[^125I]13a]
4. CNc1ccc(/C=C/c2cnc(OCCOCCOCCF)c(I)c2)cc1 [[^125I]13b]

1: 7.16; 2: 10.24; 3: 12.76; 4: 9.85
